Test system: MALME-3M melanoma
assay: NCI tumour cell line growth inhibition, 48 h
Task for the reader: assign each of the following compounds its reported log10 TGI.
In our notation, the value equals log10 of TGI in µM.

Value lookup for log10 TGI; key = "CCN1CCN(c2nc3ccc([N+](=O)[O-])cc3nc2C(=O)c2ccccc2)CC1"
1.45

Value lookup for log10 TGI; key = O=[N+]([O-])c1cccc(C2ON2C2CCCCC2)c1 (centres undefined)
1.74

Value lookup for log10 TGI; key = "COc1ccc2sc(-n3nc4ccccc4c3Nc3nc4ccc(OC)cc4s3)nc2c1"
1.17

Value lookup for log10 TGI; key = "O=C1/C(=C/c2cccc(Br)c2)CSC/C1=C\c1cccc(Br)c1"
0.65

Value lookup for log10 TGI; key = "CN(CC(=O)N(Cc1ccc(C2CCCCC2)cc1)c1ccc(C(=O)O)c(O)c1)S(=O)(=O)c1c(F)c(F)c(F)c(F)c1F"
1.09

Value lookup for log10 TGI; key = "Brc1ccc2c([C@H]3CN[C@@H](c4c[nH]c5cc(Br)ccc45)CN3)c[nH]c2c1"
0.89

Value lookup for log10 TGI; key = "CN(C)c1ccc(Nc2cc(-c3cccc(OC(F)(F)F)c3)nc3ccc(N4CCCC4)cc23)cc1"
0.49

Value lookup for log10 TGI; key = "COc1ccc2c(c1)C(=O)c1c-2c(Nc2ccc(Cl)cc2)nc2ccccc12"
1.63

Where do these numbers come from? They come from PubChem BioAssay (NCI).
